Value source: patent US20190225662A1

Target: T1, sAPPα (Fc cleaved) (mouse, UniProt P12023 18-687)
T1 construct: Made as an Fc fusion in HEK293 cells; also called soluble amyloid precursor protein α; purified sAPPα
Assay: ITC, Sushi1 (300 µM) injected into sAPPα (30 µM), 25° C.
experimentalReadout: pKd
Scale explanation: pKd corresponds to minus log10 of a concentration expressed in moles per litre.

Consider the binder Sushi domain 1 of the GABAB1a receptor, purified (receptor, also called Sushi 1; sushi1) TSEGCQIIHPPWEGGIRYRGLTRDQVKAINFLPVDYEIEYVCRGEREVVGPKVRKCLANGSWTDMDTPSRCV and give its measured pKd.
6.37
